For trypsin (Homo sapiens, UniProt P07477), measured Ki is reported for the entries below.
Answer format: numeric, µM implied, no suffix.

Worked examples follow.
>  <compound>
N=C(N)c1cccc(C(=O)N[C@@H](C(=O)OCCC2CCN(C(=N)N)CC2)c2ccccc2)c1 [Example 87]

>  <Ki / µM>
1.29

$$$$
>  <compound>
N=C(N)c1cccc(C(=O)N[C@@H](C(=O)N2CCC(C(=O)c3ccccc3)CC2)c2ccccc2)c1 [Example 63]

>  <Ki / µM>
0.288

$$$$

Now, please, on to the next compound.
Give Ki (trypsin (Homo sapiens, UniProt P07477)) of the following compound: N=C(N)c1cccc(C(=O)N[C@@H](C(=O)NC2C3CC4CC(C3)CC2C4)c2ccccc2)c1 (stereo partly drawn) [Example 68] 2.57

====

- target desc: thrombin (Homo sapiens, UniProt P00734)
property label: Ki
Please answer using a numeric value trailed by its unit.

Give Ki (thrombin (Homo sapiens, UniProt P00734)) of the following compound: CC(=N)N1CCC(CCOC(=O)[C@H](NC(=O)c2cccc(C(=N)N)c2)c2ccccc2)CC1 [Example 84] 9.12 µM

====

- System: plasma
- test name: Partial Thromboplastin Time Test (PT, tissue thromboplastin reagent)
- Assay type: biochemical
- experimental setup: Manchester (tissue thromboplasin) reagent, 37°
property label: PT CT2 (Concentration required to double clotting time)

Worked examples follow.
>  <compound>
N=C(N)c1cccc(C(=O)N[C@@H](C(=O)NC2C3CC4CC(C3)CC2C4)c2ccccc2)c1 (stereo partly drawn) [Example 68]

>  <recorded result>
17 µM

$$$$
>  <compound>
CC(C)[C@@H](NC(=O)[C@H](NC(=O)c1cccc(C(=N)N)c1)c1ccccc1)C(N)=O [Example 37]

>  <recorded result>
15 µM

$$$$
>  <compound>
N=C(N)c1cccc(C(=O)N[C@@H](C(=O)OCCC2CCN(C(=N)N)CC2)c2ccccc2)c1 [Example 87]

>  <recorded result>
4.2 µM

$$$$

// query PT CT2 (Concentration required to double clotting time) value for entry Cc1ccc(CNC(=O)[C@H](NC(=O)c2cccc(C(=N)N)c2)c2ccccc2)cc1 [Example 64] 8.3 µM

// query PT CT2 (Concentration required to double clotting time) value for entry CC(=N)N1CCC(CCOC(=O)[C@H](NC(=O)c2cccc(C(=N)N)c2)c2ccccc2)CC1 [Example 84] 1.9 µM

// query PT CT2 (Concentration required to double clotting time) value for entry N=C(N)c1cccc(C(=O)N[C@@H](C(=O)N2CCC(C(=O)c3ccccc3)CC2)c2ccccc2)c1 [Example 63] 3.7 µM
